Values were extracted from patent US20140056918A1.

# SYSTEM: T1, Human OSCAR-ECD (recombinant extracellular domain of human OSCAR) (human, UniProt Q8IYS5 19-218)
# T1 construct: also called OSACAR-ECD
# T1 chain: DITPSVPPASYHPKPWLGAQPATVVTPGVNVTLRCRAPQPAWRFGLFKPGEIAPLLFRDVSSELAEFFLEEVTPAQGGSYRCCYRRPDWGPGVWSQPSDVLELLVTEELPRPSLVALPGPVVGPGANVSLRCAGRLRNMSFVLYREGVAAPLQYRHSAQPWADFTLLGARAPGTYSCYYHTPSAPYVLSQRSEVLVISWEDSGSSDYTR
# ASSAY: SPR competition, 50 nM OSCAR-ECD premixed with mAb, over immobilised collagen II
# Parameters: unit not given here
Give measured binding of OSCAR-ECD to collagen II with 10 µg/mL mAb for each item. Keep answers brief.
Give bare numbers.

7F6A1 (antibody, V domains shown, Mouse anti-human OSCAR mAb; The heavy chain entry covers only VH-CH1 and the start of the hinge) VH: DVKLVESGGGLVKPGGSLKLSCAASGFTFSSYVMSWVRQTPEKRLEWVATISSGGSYTYYPDSVKGRFTISRDNAKNTLYLQMSSLKSEDTAMYYCTREGGNSPDYWGQGTTLTVSS VL: ENVLTQSPAIMSASPGEKVTMTCSVSSSISYMHWYRQKSFTSPQLWIYDTSKLASGVPGRFSGSGSGISYSLTISSMEAEDVATYYCFQGSEYPLTFGAGTKLELKR
19.3
7F14A1 (antibody, V domains shown, Mouse anti-human OSCAR mAb; also called 7F14A4) VH: QVQLKESGPGLVAPSQSLSITCSVSGFSLTSYGVHWVRQPPGKGLEWLGVMWAGGSTNYNSALMSRLSISKDNSKSQVFLKMNSLQTDDSAMYYCALQKGYGNYFDYWGQGTTLTVSS VL: QIVLTQSPAIMSASPGEKVTMTCSASSSVNYMHWYQQKSGTSPKRWIYDTSNLASGVPTRFSGSGSGTSYSLTISSMEAEDAATYYCQQWSSDPLTFGAGTKLELKR
83.6

In plain terms, 16F56 (antibody, V domains shown, Fully human mAb from HuMab mice; also called 16F56 (Hu); 16F56A2) VH: QVQLVQSGAEVKKPGSSVKVSCKASGGTFSNYAISWVRQAPGQGLEWMGRIIPILGIAHNAQKFQDRVTITADKSTSTAYMELSSLRSEDTAVYYCASPSSGKGLPYWFFDLWGRGTLVTVSS VL: DIQMTQSPSFLSASVGDRVTITCRASQSISSYLNWYQQKPGKAPKLLIYAASSLQSGVPSRFSGSGSGTDFTLTISSLQPEDFATYYCQCGYSTPLTFGGGTKVEIKR has a documented binding of OSCAR-ECD to collagen II with 10 µg/mL mAb of -1.9
